# Tgt: bovine intestinal alkaline phosphatase (Bos taurus (Bovine))
# Sequence (P19111 20-506): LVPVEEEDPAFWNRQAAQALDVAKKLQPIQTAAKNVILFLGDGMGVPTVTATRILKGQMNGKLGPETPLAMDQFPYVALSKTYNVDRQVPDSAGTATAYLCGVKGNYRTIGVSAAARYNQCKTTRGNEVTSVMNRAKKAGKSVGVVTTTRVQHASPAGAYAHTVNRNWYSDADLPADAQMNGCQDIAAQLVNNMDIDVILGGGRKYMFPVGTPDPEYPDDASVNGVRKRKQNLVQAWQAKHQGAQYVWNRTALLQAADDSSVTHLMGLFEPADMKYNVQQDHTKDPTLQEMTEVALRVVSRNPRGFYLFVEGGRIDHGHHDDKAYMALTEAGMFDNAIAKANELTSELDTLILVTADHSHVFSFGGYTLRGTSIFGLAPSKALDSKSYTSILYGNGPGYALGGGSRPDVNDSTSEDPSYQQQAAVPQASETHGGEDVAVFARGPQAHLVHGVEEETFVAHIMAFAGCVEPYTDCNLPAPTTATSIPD
# Measurement description: BiALP: conversion by bovine intestinal alkaline phosphatase
# Type: in vitro ADME
# Conditions: 2 μM substrate, 100 ng/mL iALP, Tris pH 7.8, 37° C., 60 minutes
Measured metric: [Compound] (nM)
Give just the numeric value; nM need not be written.

The value of [Compound] measured for the compound `COC(=O)N[C@H](C(=O)N[C@@H](Cc1ccc(C#Cc2cnc(N3CC4CCC(C3)N4C3COC3)nc2)cc1)[C@H](CN(Cc1c(F)cc(-c2ccn(C(F)F)n2)cc1F)NC(=O)[C@@H](NC(=O)OC)C(C)(C)C(F)(F)F)OC(=O)CC(C)(C)c1c(CC(=O)N2CC[C@@H](C(=O)O)C2)cc(C)cc1OP(=O)(O)O)C(C)(C)C(F)(F)F` turned out to be 1708.7

# [Compound] of `COC(=O)N[C@H](C(=O)N[C@@H](Cc1ccc(C#Cc2cnc(N3CC4CCC(C3)N4C3COC3)nc2)cc1)[C@H](CN(Cc1c(F)cc(-c2ccn(C(F)F)n2)cc1F)NC(=O)[C@@H](NC(=O)OC)C(C)(C)C(F)(F)F)OC(=O)CC(C)(C)c1c(CC(=O)Nc2ccc(/C=C/C(=O)O)cc2)cc(C)cc1OP(=O)(O)O)C(C)(C)C(F)(F)F` = 2131.6

* * *

Assign solubility at 2 h to each entry below.
# Measurement description: Solubility in FaSSIF
# Conditions: 23 °C, pH 6.5, fassif, thermodynamic from solid
Write the number in µg/mL without appending the unit.

// solubility at 2 h value for COC(=O)N[C@H](C(=O)N[C@@H](Cc1ccc(C#Cc2cnc(N3CC4CCC(C3)N4C3COC3)nc2)cc1)[C@H](CN(Cc1c(F)cc(-c2ccn(C(F)F)n2)cc1F)NC(=O)[C@@H](NC(=O)OC)C(C)(C)C(F)(F)F)OC(=O)OCOC(=O)CC(C)(C)c1c(CC(=O)NC(C)(C)CCC(=O)O)cc(C)cc1OP(=O)(O)O)C(C)(C)C(F)(F)F [Example 73] : 145

Briefly, solubility at 2 h measured for COC(=O)N[C@H](C(=O)N[C@@H](Cc1ccc(C#Cc2cnc(N3CC4CCC(C3)N4C3COC3)nc2)cc1)[C@H](CN(Cc1c(F)cc(-c2ccn(C(F)F)n2)cc1F)NC(=O)[C@@H](NC(=O)OC)C(C)(C)C(F)(F)F)OC(=O)CC(C)(C)c1c(CC(=O)NC/C(N)=N/O)cc(C)cc1OP(=O)(O)O)C(C)(C)C(F)(F)F [Example 28] : 15

Entry COC(=O)N[C@H](C(=O)N[C@@H](Cc1ccc(C#Cc2cnc(N3CC4CCC(C3)N4C3COC3)nc2)cc1)[C@H](CN(Cc1c(F)cc(-c2ccn(C(F)F)n2)cc1F)NC(=O)[C@@H](NC(=O)OC)C(C)(C)C(F)(F)F)OC(=O)CC(C)(C)c1c(CC(=O)N2C[C@H](OC)C[C@H]2C(=O)O)cc(C)cc1OP(=O)(O)O)C(C)(C)C(F)(F)F [Example 59] ; solubility at 2 h = 3600

* * *

# Tgt: bovine intestinal alkaline phosphatase (Bos taurus (Bovine))
# Measurement description: BiALP: conversion by bovine intestinal alkaline phosphatase
# Assay type: in vitro ADME
# Conditions: 2 μM substrate, 100 ng/mL iALP, Tris pH 7.8, 37° C., 60 minutes
Measured metric: biALP Intermediate A or [Amprenavir] (% of total)

Sample `COC(=O)N[C@H](C(=O)N[C@@H](Cc1ccc(C#Cc2cnc(N3CC4CCC(C3)N4C3COC3)nc2)cc1)[C@H](CN(Cc1c(F)cc(-c2ccn(C(F)F)n2)cc1F)NC(=O)[C@@H](NC(=O)OC)C(C)(C)C(F)(F)F)OC(=O)OCOC(=O)CC(C)(C)c1c(CC(=O)O)cc(C)cc1OP(=O)(O)O)C(C)(C)C(F)(F)F` ; biALP Intermediate A or [Amprenavir] (% of total) observed: 48.6 % of total

Lab note: measured biALP Intermediate A or [Amprenavir] (% of total) of `COC(=O)N[C@H](C(=O)N[C@@H](Cc1ccc(C#Cc2cnc(N3CC4CCC(C3)N4C3COC3)nc2)cc1)[C@H](CN(Cc1c(F)cc(-c2ccn(C(F)F)n2)cc1F)NC(=O)[C@@H](NC(=O)OC)C(C)(C)C(F)(F)F)OC(=O)OCOC(=O)CC(C)(C)c1c(CC(=O)NCCS(=O)(=O)O)cc(C)cc1OP(=O)(O)O)C(C)(C)C(F)(F)F` was 44.7 % of total

`COC(=O)N[C@H](C(=O)N[C@@H](Cc1ccc(C#Cc2cnc(N3CC4CCC(C3)N4C3COC3)nc2)cc1)[C@H](CN(Cc1c(F)cc(-c2ccn(C(F)F)n2)cc1F)NC(=O)[C@@H](NC(=O)OC)C(C)(C)C(F)(F)F)OC(=O)CC(C)(C)c1c(CC(=O)N2C[C@@H](C(=O)O)C[C@H]2C(=O)O)cc(C)cc1OP(=O)(O)O)C(C)(C)C(F)(F)F` yielded biALP Intermediate A or [Amprenavir] (% of total) of 4.9 % of total

* * *

# Tested on: HIV-1 IIIB strain
# Measurement description: MT-4 HIV Wild Type Virus Infection Assay (IIIB Virus)
# Format: cell-based
# Conditions: Human immunodeficiency virus 1, IIIB, MT4, 120 h, MT-4 cells acutely infected with HIV-1 IIIB, 5 day incubation, Cell-titer glo
Give measured pEC50 for each item. Keep answers brief.
Scale note: pEC50 = -log10(concentration in M).

Entry under test: `COC(=O)N[C@H](C(=O)N[C@@H](Cc1ccc(C#Cc2cnc(N3CC4CCC(C3)N4C3COC3)nc2)cc1)[C@H](CN(Cc1c(F)cc(-c2ccn(C(F)F)n2)cc1F)NC(=O)[C@@H](NC(=O)OC)C(C)(C)C(F)(F)F)OC(=O)CC(C)(C)c1c(CC(=O)N(C)CCC(=O)O)cc(C)cc1OP(=O)(O)O)C(C)(C)C(F)(F)F` . Its pEC50 was 7.23

The compound `COC(=O)N[C@H](C(=O)N[C@@H](Cc1ccc(C#Cc2cnc(N3CC4CCC(C3)N4C3COC3)nc2)cc1)[C@H](CN(Cc1c(F)cc(-c2ccn(C(F)F)n2)cc1F)NC(=O)[C@@H](NC(=O)OC)C(C)(C)C(F)(F)F)OC(=O)CC(C)(C)c1c(CC(=O)N[C@@H](CCC(=O)O)C(=O)O)cccc1OP(=O)(O)O)C(C)(C)C(F)(F)F` showed pEC50 equal to 7.68

// pEC50 value for `COC(=O)N[C@H](C(=O)N[C@@H](Cc1ccc(C#Cc2cnc(N3CC4CCC(C3)N4C3COC3)nc2)cc1)[C@H](CN(Cc1c(F)cc(-c2ccn(C(F)F)n2)cc1F)NC(=O)[C@@H](NC(=O)OC)C(C)(C)C(F)(F)F)OC(=O)CC(C)(C)c1c(CC(=O)NCP(=O)(O)O)cc(C)cc1OP(=O)(O)O)C(C)(C)C(F)(F)F` : 7.75

* * *

For each of the molecules below, state its half-life at 2 μM.
# Measurement description: Intestinal S9 Assay (dog GI S9)
# Type: in vitro ADME
# Conditions: dog, 1.0 mg/mL S9 protein, TRIS pH 7.4, read-out: Dog GI S9 T½

half-life at 2 μM reading for COC(=O)N[C@H](C(=O)N[C@@H](Cc1ccc(C#Cc2cnc(N3CC4CCC(C3)N4C3COC3)nc2)cc1)[C@H](CN(Cc1c(F)cc(-c2ccn(C(F)F)n2)cc1F)NC(=O)[C@@H](NC(=O)OC)C(C)(C)C(F)(F)F)OC(=O)CC(C)(C)c1c(CC(=O)Nc2ccc(OC)c(S(=O)(=O)O)c2)cc(C)cc1OP(=O)(O)O)C(C)(C)C(F)(F)F [Example 107] : 2.21 h

For this molecule ( COC(=O)N[C@H](C(=O)N[C@@H](Cc1ccc(C#Cc2cnc(N3CC4CCC(C3)N4C3COC3)nc2)cc1)[C@H](CN(Cc1c(F)cc(-c2ccn(C(F)F)n2)cc1F)NC(=O)[C@@H](NC(=O)OC)C(C)(C)C(F)(F)F)OC(=O)CC(C)(C)c1c(CC(=O)N2CC(C)(C)C[C@H]2C(=O)O)cc(C)cc1OP(=O)(O)O)C(C)(C)C(F)(F)F [Example 61] ), measured half-life at 2 μM is 11.2 h

// recorded half-life at 2 μM for COC(=O)N[C@H](C(=O)N[C@@H](Cc1ccc(C#Cc2cnc(N3CC4CCC(C3)N4C3COC3)nc2)cc1)[C@H](CN(Cc1c(F)cc(-c2ccn(C(F)F)n2)cc1F)NC(=O)[C@@H](NC(=O)OC)C(C)(C)C(F)(F)F)OC(=O)CC(C)(C)c1c(CC(=O)N2CCC[C@H]2C(=O)O)cccc1OP(=O)(O)O)C(C)(C)C(F)(F)F [Example 46] : 5.08 h

* * *

Consider the following molecules; for each one, report its half-life at 2 μM.
# Measurement description: Intestinal S9 Assay (human GI S9)
# Assay type: in vitro ADME
# Conditions: human, 1.0 mg/mL S9 protein, TRIS pH 7.4, read-out: Human GI S9 T½
Give just the number in h; leave the unit off.

Measured half-life at 2 μM, COC(=O)N[C@H](C(=O)N[C@@H](Cc1ccc(C#Cc2cnc(N3CC4CCC(C3)N4C3COC3)nc2)cc1)[C@H](CN(Cc1c(F)cc(-c2ccn(C(F)F)n2)cc1F)NC(=O)[C@@H](NC(=O)OC)C(C)(C)C(F)(F)F)OC(=O)CC(C)(C)c1c(CC(=O)N2CCC(C(=O)O)CC2C(=O)O)cc(C)cc1OP(=O)(O)O)C(C)(C)C(F)(F)F (stereo partly drawn) [Example 113] : 6.56

Recorded result, COC(=O)N[C@H](C(=O)N[C@@H](Cc1ccc(C#Cc2cnc(N3CC4CCC(C3)N4C3COC3)nc2)cc1)[C@H](CN(Cc1c(F)cc(-c2ccn(C(F)F)n2)cc1F)NC(=O)[C@@H](NC(=O)OC)C(C)(C)C(F)(F)F)OC(=O)CC(C)(C)c1c(CC(=O)Nc2ccc(OC)c(S(=O)(=O)O)c2)cc(C)cc1OP(=O)(O)O)C(C)(C)C(F)(F)F [Example 107] , half-life at 2 μM: 4.11

So, COC(=O)N[C@H](C(=O)N[C@@H](Cc1ccc(C#Cc2cnc(N3CC4CCC(C3)N4C3COC3)nc2)cc1)[C@H](CN(Cc1c(F)cc(-c2ccn(C(F)F)n2)cc1F)NC(=O)[C@@H](NC(=O)OC)C(C)(C)C(F)(F)F)OC(=O)CC(C)(C)c1c(CC(=O)NCC(=O)O)cc(C)cc1OP(=O)(O)O)C(C)(C)C(F)(F)F [Example 74] ? Its half-life at 2 μM was 3.93
